- tested_system: NTS1B (neurotensin receptor 1 fusion construct) (Rattus norvegicus, UniProt P20789)
- measurement_protocol: Label-free MST of ligand binding to NTS1B
- condition_details: KD, NTS1B 150 nM, ligand titrated
measurement_kind: pKd
Keep it numeric: pKd is minus log10 of the concentration in mol/L.

compound COc1cccc(OC)c1-c1cc(C(=O)NC2(C(=O)O)C3CC4CC(C3)CC2C4)nn1-c1ccnc2cc(Cl)ccc12 (stereo not shown) , pKd observed: 7.82

----------
- tested_system: adenosine A2A receptor (A2aR), fusion with apocytochrome b562RIL (Homo sapiens)
- measurement_protocol: Label-free MST of ligand binding to A2aR
measurement_kind: Kd (µM)
Numeric answer only, unit µM assumed.

Kd reported for this compound N=C(N)NC(=O)c1nc(Cl)c(N)nc1N [amiloride] : 52
